assay target: T1, His-Spindlin1(49–262) (human, UniProt Q9Y657 49-262)
T1 construct: Spindlin1, human, amino acids 49-262; Modified pET15b with a minimal, non-cleavable hexahistidine tag; also called recombinant Spindlin1; source: E. coli BL21(DE3) codon plus, purified (Talon beads, gel filtration on superdex S75)
T1 sequence (Q9Y657 49-262): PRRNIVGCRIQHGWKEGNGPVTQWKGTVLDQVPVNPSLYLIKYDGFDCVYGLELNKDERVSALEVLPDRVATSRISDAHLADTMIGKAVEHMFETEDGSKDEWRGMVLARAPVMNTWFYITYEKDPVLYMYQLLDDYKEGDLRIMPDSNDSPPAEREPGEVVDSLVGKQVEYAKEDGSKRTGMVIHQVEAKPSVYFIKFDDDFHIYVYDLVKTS
run description: fluorescent thermal shift assay (FTSA); 0.1 mg/ml His-Spindlin1(49–262), 5x SYPRO Orange, dilution series of H3(1–12)K4me3; 100 mM Hepes pH 7.5, 150 mM NaCl; KD by regression of Tm against ligand concentration
measurement context: both partners purified
Ends that are not written are not given here. Me3 = trimethyl (trimethylated lysine)
experimental readout: Kd (nM)
# unit: nM | format: bare number

Bench note: what Kd did ARTK(Me3)QTARKSTG (histone H3, amino acids 1-12; Free N-terminus (H2N-) and free C-terminus (-COOH) as printed; also called unlabeled H3K4me3 peptide; unlabeled H3(1–12)K4me3; source: synthetic peptide, custom synthesized by Peptide Specialty Laboratories GmbH) [H3(1–12)K4me3] show?
380
